test system: MS2 coat protein; test: apparent KD of MS2 coat protein; higher = weaker reporter binding; conditions: Eterna round: R107; input ligand: none
Test readout: apparent KD of MS2 coat protein (nM)
Hi! Could you send only the number? It should be in nM, unit omitted.

These recorded examples may help you get a feel for the data.
Sequence string	Study system	apparent KD of MS2 coat protein (nM)
GGAUAGGACAGAAGGAGCGGCAUGGCAGAAACUGCAAUCCUCCUACACGAGGAUCACCCGUGUCAGGUAGGUCGCUGUCCUAUCG [ArgXB 13 #Zipper #MS2Left #StaticStem #Blueprint]	MS2 coat protein	15.1
GAAGGAGAGUGAUCCACUCCUUCUCUGGAAGGAGCGAGCGAAAGCUCAGGUAGGUCGCCAGAAACAUGAGGAUCACCCAUGUAAU [(A)''-(M)'-(A)'-(Arg1)-(Arg2)-(M1)-(M2)_Design7]	MS2 coat protein	104

// moving on: another record for apparent KD of MS2 coat protein
Record summary for GGGUAUGAUCCGGAUACCAGCGAACAUGAGGAUCACCCAUGUGACCUAAGAUAGGCUCUACGCCCUUGGCAGCCGCGAUCGCAGA [Same State Theophylline B GF9] : reported apparent KD of MS2 coat protein = 22.3

====

tested on: MS2 coat protein; assay: apparent KD of MS2 coat protein, switch OFF state (with FMN for OFF switches, without FMN for ON switches); designed switch direction (-1 OFF switch, 1 ON switch): -1; higher = weaker reporter binding; details: FMN input: 0 or 200 uM; Eterna round: R93 (includes R88 designs)
Label criterion not met if apparent KD of MS2 coat protein falls below 30 nM; label criterion met in every other case.

> print(dat)
                            sequence.string   class.assignment
1  AAGCUGCUAGGAUAUACAGCAGGGAUUCGAAAACCCACGAAACAUGAGGAUCACCCAUGUAGAAGGAGUAGGGA [Attixe]  criterion not met
2  AAACCACAUGAGGAUCACCCAUGUCAGGAUAUGCUAUGGAAAAAUAAAAUAAAACAUAGCAGAAGGGACAAAAA [Mat - Exclusion 1 - Eli mod - D34]      criterion met
3  AAGGGACAUGAGGAUCACCCAUGUCAGGAUAUGCUAUGGAAAUAAAAAAUAAAACAUAGCAGAAGGGACACCAA [Mat - Exclusion 1 - Eli mod - D49]      criterion met
4  GAUUAGUGAGGAUAUACAUGAGGAUCACCCAUGUGUAAAAAAAAACGCAAAAAAGAAUGUAGAAGGCACUAAAG [Mat - Exclusion 3 - Mayanna mod - D103]      criterion met
5  AAGAACUCAGGAUAUGCUAAAGAAAUAAAAAUAAAUAAAGAACAUGAGGAUCACCCAUGUAGAAGGGAGAAGAA [Merkawre Sobekhotep VII]      criterion met

Inquiry: Quick check, apparent KD of MS2 coat protein >= 30 nM? GGGUAGUCAGGAUAUACAAACAUGUCAAAAGACGUGAAAAAACAUGAGGAUCACCCAUGUAGAAGGGACUACCC [Mat - Exclusion 2 - JL mod - D20]
Reply text: criterion not met

Inquiry: Quick check, apparent KD of MS2 coat protein >= 30 nM? AGGAAACAUGAGGAUCACCCAUGUCAGGAUAUAGGAAAGAAAAGAAAAGAAAGAAGAAUUAGAAGGGACAAGAA [King Scorpion]
Reply text: criterion not met

Inquiry: Quick check, apparent KD of MS2 coat protein >= 30 nM? AUCUAGUCAGGAUAUCGAUGAAAUGAAGUGAAAGAAAAGAACGAGAAGGGACAUGAGGAUCACCCAUGUUAGAA [EteRNA is fun!]
Reply text: criterion not met

Inquiry: Quick check, apparent KD of MS2 coat protein >= 30 nM? AAGUUGCUAGGAUAUACUUGGGCAACAAAUAAACUAAUAUAACAUGAGGAUCACCCAUGUAGAAGGAGCAGAAA [JR_Exc002_Sub206]
Reply text: criterion met

Inquiry: Quick check, apparent KD of MS2 coat protein >= 30 nM? AACAUGUAAGGAUAUAGAAGAAAAGAAAAGAAAGAAAAGAACUAGAAGGUACAUGAGGAUCACCCAUGUAAGAA [EteRNA is fun!]
Reply text: criterion not met

Inquiry: Quick check, apparent KD of MS2 coat protein >= 30 nM? AGCAAACAUGAGGAUCACCCAUGUCAGGAUAUGAACGAAAAUAAAUAAAAAUAAAAGUUCAGAAGGGACGAGCA [66%, Wbt, 25]
Reply text: criterion met
